System: d-U937 cells
Experiment: Accumulation of β catenin in d-U937 cells (assay m)
Format: cell-based, human
Settings: test compound 10 μg/mL; percentage relative to Reference Compound at 1 μg/mL
Values of % β-catenin induction greater than or equal to 30% map to criterion met; values below map to criterion not met.

{"COMPOUND": "COc1cc(Nc2cc(Oc3ccc(NC(=O)Nc4cc(C(C)(C)C)cc(CNC(C)=O)c4OC)c4ccccc34)ccn2)cc(OC)c1", "CLASSIFICATION": "criterion not met"}
{"COMPOUND": "COc1cncc(Nc2cc(Oc3ccc(NC(=O)Nc4cc(C(C)(C)C)cc(P(C)(C)=O)c4OC)c4ccccc34)ccn2)c1", "CLASSIFICATION": "criterion not met"}
{"COMPOUND": "COc1cccc(Nc2cc(Oc3ccc(NC(=O)Nc4cc(C(C)(C)C)cc(CC(N)=O)c4OC)c4ccccc34)ccn2)c1", "CLASSIFICATION": "criterion not met"}
{"COMPOUND": "COc1cc(CO)cc(Nc2cc(Oc3ccc(NC(=O)Nc4cc(C(C)(C)C)cc(P(C)(C)=O)c4OC)c4ccccc34)ccn2)c1", "CLASSIFICATION": "criterion not met"}
{"COMPOUND": "COCCOCCOCCOc1cc(Nc2cc(Oc3ccc(NC(=O)Nc4cc(C(C)(C)C)cc(C(=O)NCCN5CCOCC5)c4OC)c4ccccc34)ccn2)cc(OC)c1", "CLASSIFICATION": "criterion not met"}
{"COMPOUND": "COc1c(NC(=O)Nc2ccc(Oc3ccnc(Nc4cnn(C)n4)n3)c3ccccc23)cc(C(C)(C)C)cc1P(C)(C)=O", "CLASSIFICATION": "criterion not met"}
{"COMPOUND": "COc1cccc(Nc2nccc(Oc3ccc(NC(=O)Nc4cc(C(C)(C)C)cc(P(C)(C)=O)c4OC)c4ccccc34)n2)c1", "CLASSIFICATION": "criterion met"}
{"COMPOUND": "COc1c(CC(N)=O)cc(C(C)(C)C)cc1NC(=O)Nc1ccc(Oc2ccnc(Nc3cc(C)cc(C)c3)c2)c2ccccc12", "CLASSIFICATION": "criterion not met"}
{"COMPOUND": "COCCOCCOCCOc1cc(Nc2nccc(Oc3ccc(NC(=O)Nc4cc(C(C)(C)C)cc(OCP(C)(C)=O)c4OC)c4ccccc34)n2)cc(OC)c1", "CLASSIFICATION": "criterion met"}
{"COMPOUND": "COc1cncc(Nc2cc(Oc3ccc(NC(=O)Nc4cc(C(C)(C)C)cc(CC(N)=O)c4OC)c4ccccc34)ccn2)c1", "CLASSIFICATION": "criterion not met"}
{"COMPOUND": "COc1c(NC(=O)Nc2ccc(Oc3ccnc(Nc4ccccc4)n3)c3ccccc23)cc(C(C)(C)C)cc1OCP(C)(C)=O", "CLASSIFICATION": "criterion met"}
{"COMPOUND": "COc1c(NC(=O)Nc2ccc(Oc3ccnc(NCc4ccccn4)c3)c3ccccc23)cc(C(C)(C)C)cc1P(C)(C)=O [38(e)]", "CLASSIFICATION": "criterion met"}
{"COMPOUND": "COc1c(NC(=O)Nc2ccc(Oc3ccnc(Nc4cnccn4)c3)c3ccccc23)cc(C(C)(C)C)cc1P(C)(C)=O", "CLASSIFICATION": "criterion met"}
{"COMPOUND": "COc1c(NC(=O)Nc2ccc(Oc3ccnc(Nc4ccccc4)c3)c3ccccc23)cc(C(C)(C)C)cc1S(C)(=O)=O", "CLASSIFICATION": "criterion not met"}
{"COMPOUND": "COc1c(CP(C)(C)=O)cc(C(C)(C)C)cc1NC(=O)Nc1ccc(Oc2ccnc(Nc3ccccc3)c2)c2ccccc12", "CLASSIFICATION": "criterion not met"}
{"COMPOUND": "COc1c(C[S+](C)[O-])cc(C(C)(C)C)cc1NC(=O)Nc1ccc(Oc2ccnc(Nc3ccccc3)c2)c2ccccc12 (centres unmarked)", "CLASSIFICATION": "criterion not met"}
{"COMPOUND": "COc1c(NC(=O)Nc2ccc(Oc3ccnc(Nc4ccn(C)n4)c3)c3ccccc23)cc(C(C)(C)C)cc1P(C)(C)=O", "CLASSIFICATION": "criterion not met"}
{"COMPOUND": "COCCOCCOCCOc1cc(Nc2nccc(Oc3ccc(NC(=O)Nc4cc(C(C)(C)C)cc(C(=O)NCCN5CCOCC5)c4OC)c4ccccc34)n2)cc(OC)c1", "CLASSIFICATION": "criterion not met"}
{"COMPOUND": "COCCOCCOCCOc1cc(Nc2cc(Oc3ccc(NC(=O)Nc4cc(C(C)(C)C)cc(P(C)(C)=O)c4)c4ccccc34)ccn2)cc(OC)c1", "CLASSIFICATION": "criterion not met"}
{"COMPOUND": "COc1cc(Nc2cc(Oc3ccc(NC(=O)Nc4cc(C(C)(C)C)cc([S+](C)[O-])c4OC)c4ccccc34)ccn2)cc(OC)c1 (centres unmarked)", "CLASSIFICATION": "criterion not met"}
{"COMPOUND": "COc1c(NC(=O)Nc2ccc(Oc3ccnc(Nc4ccccc4)c3)c3ccccc23)cc(C(C)(C)C)cc1P(C)(C)=O", "CLASSIFICATION": "criterion not met"}
{"COMPOUND": "COCCOCCOCCOc1cc(Nc2cc(Oc3ccc(NC(=O)Nc4cc(C(C)(C)C)cc(CS(C)(=O)=O)c4OC)c4ccccc34)ccn2)cc(OC)c1", "CLASSIFICATION": "criterion not met"}
{"COMPOUND": "COc1c(CNC(C)=O)cc(C(C)(C)C)cc1NC(=O)Nc1ccc(Oc2ccnc(NCc3ccccn3)c2)c2ccccc12", "CLASSIFICATION": "criterion met"}
{"COMPOUND": "CNC(=O)Cc1cc(C(C)(C)C)cc(NC(=O)Nc2ccc(Oc3ccnc(Nc4cccc(OC)c4)c3)c3ccccc23)c1OC", "CLASSIFICATION": "criterion not met"}
{"COMPOUND": "COc1cccc(Nc2cc(Oc3ccc(NC(=O)Nc4cc(C(C)(C)C)cc(P(C)(C)=O)c4OC)c4ccccc34)ccn2)c1", "CLASSIFICATION": "criterion met"}
{"COMPOUND": "COc1cc(Nc2cc(Oc3ccc(NC(=O)Nc4cc(C(C)(C)C)cc(P(C)(C)=O)c4OC)c4ccccc34)ccn2)cc(OC)c1", "CLASSIFICATION": "criterion not met"}

----------
This section presents compounds with their documented % β-catenin induction values.
Test system: d-U937 cells
Assay: Accumulation of β catenin in d-U937 cells (assay m)
Assay type: cell-based, human
Conditions: test compound 1 μg/mL; percentage relative to Reference Compound at 1 μg/mL
Procedure: U937 cells, a human monocytic cell line, are differentiated into macrophage-type cells by incubation with PMA; (100 ng/mL) for between 48 to 72 hr. The cells are then incubated with either final concentrations of test compound or vehicle for 18 hr. The induction of β-catenin by the test compounds is stopped by replacing the media with 4% formaldehyde solution. […] The measured OD450-655 readings are corrected for cell number by dividing the OD450-655 by the OD595 readings.

{"COMPOUND": "COc1c(CNC(C)=O)cc(C(C)(C)C)cc1NC(=O)Nc1ccc(Oc2ccnc(Nc3ccccc3)c2)c2ccccc12 [Example 35]", "UNIT LABEL": "%", "% β-catenin induction": 5.5}
{"COMPOUND": "COc1cc(CO)cc(Nc2cc(Oc3ccc(NC(=O)Nc4cc(C(C)(C)C)cc(CC(N)=O)c4OC)c4ccccc34)ccn2)c1 [38(m)]", "UNIT LABEL": "%", "% β-catenin induction": 3.0}
{"COMPOUND": "COCCOCCOCCOc1cc(Nc2cc(Oc3ccc(NC(=O)Nc4cc(C(C)(C)C)cc(S(C)(=O)=O)c4OC)c4ccccc34)ccn2)cc(OC)c1 [Example 9]", "UNIT LABEL": "%", "% β-catenin induction": 4.5}
{"COMPOUND": "C#Cc1cc(Nc2cc(Oc3ccc(NC(=O)Nc4cc(C(C)(C)C)cc(P(C)(C)=O)c4OC)c4ccccc34)ccn2)cc(C(=O)NCCOCCOCCOC)c1 [Example 3]", "UNIT LABEL": "%", "% β-catenin induction": 5.7}
{"COMPOUND": "COc1cc(Nc2cc(Oc3ccc(NC(=O)Nc4cc(C(C)(C)C)cc(P(C)(C)=O)c4OC)c4ccccc34)ccn2)cc(C(N)=O)c1 [Example 37]", "UNIT LABEL": "%", "% β-catenin induction": 2.0}
{"COMPOUND": "COc1cc(Nc2nccc(Oc3ccc(NC(=O)Nc4cc(C(C)(C)C)cc(P(C)(C)=O)c4OC)c4ccccc34)n2)cc(OC)c1 [Example 18]", "UNIT LABEL": "%", "% β-catenin induction": 6.5}

----------
The listing below reports IC50 for compounds tested on GSK 3α (Homo sapiens (Human)).
Sequence (P49840 whole entry): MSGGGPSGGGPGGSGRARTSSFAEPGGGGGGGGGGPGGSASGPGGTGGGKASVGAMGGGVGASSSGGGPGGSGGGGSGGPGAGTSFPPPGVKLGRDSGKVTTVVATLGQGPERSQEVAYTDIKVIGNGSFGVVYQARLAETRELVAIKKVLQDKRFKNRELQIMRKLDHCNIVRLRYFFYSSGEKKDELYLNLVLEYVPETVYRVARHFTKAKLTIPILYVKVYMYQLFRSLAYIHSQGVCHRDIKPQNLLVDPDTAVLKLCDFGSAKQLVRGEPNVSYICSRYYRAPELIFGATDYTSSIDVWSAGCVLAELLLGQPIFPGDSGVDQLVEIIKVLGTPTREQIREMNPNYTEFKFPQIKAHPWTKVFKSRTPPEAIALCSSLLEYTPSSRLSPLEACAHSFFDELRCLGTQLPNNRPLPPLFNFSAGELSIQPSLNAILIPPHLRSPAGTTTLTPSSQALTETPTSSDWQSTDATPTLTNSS

{"COMPOUND": "COCCOCCOCCNC(=O)c1cc(Nc2cc(Oc3ccc(NC(=O)Nc4cc(C(C)(C)C)cc(S(C)(=O)=O)c4OC)c4ccccc34)ccn2)cc(OC)c1 [38(ab)]", "TESTED TARGET": "GSK 3α (Homo sapiens (Human))", "COMPARISON SYMBOL": "=", "IC50 (µM)": 4.83}
{"COMPOUND": "COc1cc(Nc2cc(Oc3ccc(NC(=O)Nc4cc(C(C)(C)C)cc(C(=O)NCCN5CCOCC5)c4OC)c4ccccc34)ccn2)cc(OC)c1 [Example 62]", "TESTED TARGET": "GSK 3α (Homo sapiens (Human))", "COMPARISON SYMBOL": ">", "IC50 (µM)": 11.4}
{"COMPOUND": "COCCOCCOCCOc1cc(Nc2cc(Oc3ccc(NC(=O)Nc4cc(C(C)(C)C)cc(C(=O)NCCN5CCOCC5)c4OC)c4ccccc34)ccn2)cc(OC)c1 [Example 16]", "TESTED TARGET": "GSK 3α (Homo sapiens (Human))", "COMPARISON SYMBOL": "=", "IC50 (µM)": 5.67}
{"COMPOUND": "COc1c(NC(=O)Nc2ccc(Oc3ccnc(Nc4ccccc4)n3)c3ccccc23)cc(C(C)(C)C)cc1S(C)(=O)=O [15(l)]", "TESTED TARGET": "GSK 3α (Homo sapiens (Human))", "COMPARISON SYMBOL": "=", "IC50 (µM)": 8.22}
{"COMPOUND": "COc1c(CNC(C)=O)cc(C(C)(C)C)cc1NC(=O)Nc1ccc(Oc2ccnc(Nc3cc(OCCN4CCOCC4)cc(C(F)(F)F)c3)c2)c2ccccc12 [Example 52]", "TESTED TARGET": "GSK 3α (Homo sapiens (Human))", "COMPARISON SYMBOL": ">", "IC50 (µM)": 12.5}
{"COMPOUND": "COc1c(NC(=O)Nc2ccc(Oc3ccnc(NCc4ccccc4)n3)c3ccccc23)cc(C(C)(C)C)cc1P(C)(C)=O [38(g)]", "TESTED TARGET": "GSK 3α (Homo sapiens (Human))", "COMPARISON SYMBOL": "=", "IC50 (µM)": 2.37}
{"COMPOUND": "COCCOCCOCCOc1cc(Nc2cc(Oc3ccc(NC(=O)Nc4cc(C(C)(C)C)cc(P(C)(C)=O)c4OC)c4ccccc34)ccn2)cc(OC)c1 [Example 2]", "TESTED TARGET": "GSK 3α (Homo sapiens (Human))", "COMPARISON SYMBOL": "=", "IC50 (µM)": 2.81}
{"COMPOUND": "COc1cc(Nc2cc(Oc3ccc(NC(=O)Nc4cc(C(C)(C)C)cc(P(C)(C)=O)c4OC)c4ccccc34)ccn2)cc(S(=O)(=O)N(C)C)c1 [Example 58]", "TESTED TARGET": "GSK 3α (Homo sapiens (Human))", "COMPARISON SYMBOL": "=", "IC50 (µM)": 7.1}
{"COMPOUND": "COCCOCCOCCOc1cc(Nc2cc(Oc3ccc(NC(=O)Nc4cc(C(C)(C)C)cc(S(C)(=O)=O)c4OC)c4ccccc34)ccn2)cc(OC)c1 [Example 9]", "TESTED TARGET": "GSK 3α (Homo sapiens (Human))", "COMPARISON SYMBOL": ">", "IC50 (µM)": 10.7}
{"COMPOUND": "COc1c(CC(N)=O)cc(C(C)(C)C)cc1NC(=O)Nc1ccc(Oc2ccnc(NCc3ccccn3)c2)c2ccccc12 [38(d)]", "TESTED TARGET": "GSK 3α (Homo sapiens (Human))", "COMPARISON SYMBOL": "=", "IC50 (µM)": 2.24}
{"COMPOUND": "COc1cc(Nc2cc(Oc3ccc(NC(=O)Nc4cc(C(C)(C)C)cc(P(C)(C)=O)c4OC)c4ccccc34)ccn2)cc(C(=O)NCCN2CC[S+]([O-])CC2)c1 [38(am)]", "TESTED TARGET": "GSK 3α (Homo sapiens (Human))", "COMPARISON SYMBOL": "=", "IC50 (µM)": 1.5}
{"COMPOUND": "COc1c(CNC(C)=O)cc(C(C)(C)C)cc1NC(=O)Nc1ccc(Oc2ccnc(NCc3ccccn3)c2)c2ccccc12 [38(q)]", "TESTED TARGET": "GSK 3α (Homo sapiens (Human))", "COMPARISON SYMBOL": "=", "IC50 (µM)": 1.5}
{"COMPOUND": "COc1c(CC(N)=O)cc(C(C)(C)C)cc1NC(=O)Nc1ccc(Oc2ccnc(Nc3ccccc3)c2)c2ccccc12 [Example 13]", "TESTED TARGET": "GSK 3α (Homo sapiens (Human))", "COMPARISON SYMBOL": "=", "IC50 (µM)": 7.58}

Every entry's value here was drawn from patent US9890185B2.
